Entries and their EC50
# target under test: T1, EBOV soluble GP (sGP) (Ebola virus (EBOV), UniProt P60170 33-324)
# T1 chain: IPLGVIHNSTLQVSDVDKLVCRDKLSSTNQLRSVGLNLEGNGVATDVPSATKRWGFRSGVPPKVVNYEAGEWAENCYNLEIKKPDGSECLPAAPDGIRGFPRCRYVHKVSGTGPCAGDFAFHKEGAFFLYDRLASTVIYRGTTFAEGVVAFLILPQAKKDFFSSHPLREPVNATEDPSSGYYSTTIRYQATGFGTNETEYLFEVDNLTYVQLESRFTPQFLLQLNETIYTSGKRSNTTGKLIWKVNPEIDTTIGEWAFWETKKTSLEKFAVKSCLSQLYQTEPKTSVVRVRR
# assay text: ELISA
test readout: EC50 (ng/mL)

binder="FVM04 (antibody, V domains shown) VH: EVQLVQSGGGLVQPGGSMRLSCEASGLSLSDYFMHWVRQAQGKGLEWIGLIQTKAFTYKTEYPAAVKGRFTISRDDSKNTLYLQMSSLKPEDTALYYCIAVTPDFYYWGQGVLVTVSS VL: DVVMTQSPSFLSASVGDRVTITCRASQDITINLNWFQHKPGKAPKRLIYVASRLERGVPSRFSGSGSGTEFTLTISSLQPEDFATYYCQQYNNYPLTFGPGTKLDIKR" test_readout=EC50 unit_of_measurement=ng/mL value_measured=7
binder="FVM13 (antibody, V domains shown) VH: EVQLVQSGAEVKRPGESLKISCKTSGYTFTSSWISWVRQMPGKGLEWLGSIYPGDSDTRYNPSFQGHVTISADTSIITTHLQWSSLKASDTATYYCVKGSETWGQGVLVTVSS VL: KPMLTQPTSLSASPGASASLTCTFSGGINVAGYNILWYQQKAGSPPRYLLRYKSDSTKDQGSGVPSRFSGSKDASANTGILRISGLQSEDEADYYCAIGHSSGWIFGGGTRLTVL" test_readout=EC50 unit_of_measurement=ng/mL value_measured=5
binder="FVM09 (antibody, V domains shown) VH: EVQLVQSGAEVKRPGESLTISCKTSGYSFTDSWVAWVRQMPGKGLEWLGSIYPGDSETKYNPSFQGHVTISADKSVTTTYLKWSSLKASDTATYYCVKGSETWGQGVLVTVSS VL: QLVLTQPASLSASPGASASLTCTFSGGINVAGYNILWYQQKAGSPPRYLLRYKSDSTKDQGSGVPSRFSGSKDASANTGILRISGLQSEDEADYYCAIGHSSGWIFGGGTRLTVL" test_readout=EC50 unit_of_measurement=ng/mL value_measured=17
